B1: EEHEE_rd4_0647 (parent)
chain: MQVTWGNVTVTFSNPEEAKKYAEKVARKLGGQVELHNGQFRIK

variants of: B1; assay: folding stability dG (cDNA display proteolysis); higher = more stable; conditions: PBS, room temperature
Each entry below carries its reported folding stability dG.
experimental-readout: folding stability dG (kcal/mol)

# sequence-record, experimental-readout, observed
data = [
    ("MQVTWGNVTVTFSNPEEAKKYAEKVARKLGGQVELHNGQFRKK [I42K]", "folding stability dG", 0.538),
    ("MQVTWGNVTVTFSNPEEAKKYAEKVARKLGGQDELHNGQFRIK [V33D]", "folding stability dG", 0.259),
    ("MQVTWGNVIVTFSNPEEAKKYAEKVARKLGGQVELHNGQFRIK [T9I]", "folding stability dG", 2.71),
    ("MQVTWGNVTVTFSNPEEAKKYAEKVARKLGGQVELHMGQFRIK [N37M]", "folding stability dG", 2.11),
]

These measurements were taken from the MegaScale stability set (Tsuboyama et al. 2023).
